Source listed as patent US20260216207A1.

# TESTED TARGET: UniProt P11309
# Sequence (P11309 whole entry): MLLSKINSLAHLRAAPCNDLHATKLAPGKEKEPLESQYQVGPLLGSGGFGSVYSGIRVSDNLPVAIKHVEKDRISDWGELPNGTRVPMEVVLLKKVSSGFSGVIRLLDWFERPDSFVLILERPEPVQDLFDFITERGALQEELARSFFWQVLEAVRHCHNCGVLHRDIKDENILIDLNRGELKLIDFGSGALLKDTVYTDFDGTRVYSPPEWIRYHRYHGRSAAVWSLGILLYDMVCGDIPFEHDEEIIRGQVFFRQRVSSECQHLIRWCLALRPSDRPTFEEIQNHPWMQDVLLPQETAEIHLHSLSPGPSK
# ASSAY TEXT: HTRF KinEASE kinase assay, PIM-1 inhibitory activity
# Type: biochemical
# CONDITION LABEL: HTRF KinEASE kit, 3 duplicate wells; read-out: PIM-1 kinase inhibitory activity (IC50)
PROPERTY NAME: IC50 (nM)

[
  {
    "MOLECULE": "CCC(=O)N(C)[C@@H]1C[C@H]2O[C@@](C)([C@@H]1OC)n1c3ccccc3c3c4c(c5c6ccccc6n2c5c31)C(=O)NC4=O [Compound 1]",
    "READOUT UNITS": "nM",
    "MEASURED RESULT": 41
  },
  {
    "MOLECULE": "CO[C@@H]1[C@H](N(C)C(=O)c2cccs2)C[C@H]2O[C@]1(C)n1c3ccccc3c3c4c(c5c6ccccc6n2c5c31)C(=O)NC4=O [Compound 8]",
    "READOUT UNITS": "nM",
    "MEASURED RESULT": 52.4
  }
]

I. CO[C@@H]1[C@H](N(C)C(=O)CCCCC(=O)O)C[C@H]2O[C@]1(C)n1c3ccccc3c3c4c(c5c6ccccc6n2c5c31)C(=O)NC4=O [Compound 15]
II. CO[C@@H]1[C@H](N(C)C(=O)CCCC(=O)O)C[C@H]2O[C@]1(C)n1c3ccccc3c3c4c(c5c6ccccc6n2c5c31)C(=O)NC4=O [Compound 13]
IN: Param metric = IC50; output whichever of I , II has the minimum value. Pick one; state its label.
OUT: II
(II: 39.1 nM, I: 61.1 nM)
